Molecular target: UniProtKB P42574
Sequence (P42574 29-175 limits assumed, species assumed): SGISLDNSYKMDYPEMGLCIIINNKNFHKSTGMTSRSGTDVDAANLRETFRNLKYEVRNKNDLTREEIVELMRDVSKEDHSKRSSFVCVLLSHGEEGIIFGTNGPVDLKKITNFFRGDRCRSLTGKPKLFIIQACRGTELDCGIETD
Sequence (P42574 176-277 limits assumed, species assumed): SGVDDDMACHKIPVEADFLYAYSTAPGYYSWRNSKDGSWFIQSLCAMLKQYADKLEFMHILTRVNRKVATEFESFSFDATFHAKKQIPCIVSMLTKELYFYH
Test: Dissociation constant Ki and irreversible rate constant k3 for irreversible inhibitors (CPP32)
Type: biochemical
Conditions: continuous assay 60 min, reaction initiated by adding enzyme to substrate-inhibitor mixture
pKi: −log10 of the molar value.
pKi of 7 or higher: rule met. Under 7: rule not met.

Check out these entries, answers already filled in.
*Q* Identify whether the reported pKi of the following compound is 7 or greater: C[C@H](NC(=O)C(=O)Nc1ccc(F)cc1)C(=O)N[C@@H](CC(=O)O)C(=O)COC(=O)c1c(Cl)cccc1Cl
*A* rule not met

*Q* Can you handle CC(C)[C@H](NC(=O)C(=O)Nc1cccc2ccccc12)C(=O)N[C@@H](CC(=O)O)C(=O)COP(C)(=O)c1ccccc1 (stereo partly drawn) next?
*A* rule met

*Q* Can you handle C[C@H](NC(=O)C(=O)Nc1cccc2c1CCCC2)C(=O)N[C@@H](CC(=O)O)C(=O)COC(=O)c1c(Cl)cccc1Cl [Example 49] next?
*A* rule met

Next:
*Q* Identify whether the reported pKi of the following compound is 7 or greater: C[C@H](NC(=O)C(=O)Nc1ccccc1Cl)C(=O)N[C@@H](CC(=O)O)C(=O)COC(=O)c1c(Cl)cccc1Cl [Example 58]
*A* rule met

*Q* Can you handle CC(C)[C@H](NC(=O)C(=O)Nc1nc2ccccc2[nH]1)C(=O)N[C@@H](CC(=O)O)C(=O)COc1c(F)c(F)cc(F)c1F next?
*A* rule not met

*Q* Can you handle C[C@H](NC(=O)C(=O)Nc1ccccc1C(C)(C)C)C(=O)N[C@@H](CC(=O)O)C(=O)COP(=O)(c1ccccc1)c1ccccc1 [Example 32] next?
*A* rule met

*Q* Can you handle CC(C)[C@H](NC(=O)C(=O)Nc1ccncc1)C(=O)N[C@@H](CC(=O)O)C(=O)COc1c(F)c(F)cc(F)c1F next?
*A* rule not met

*Q* Can you handle C[C@H](NC(=O)C(=O)NCc1ccccc1)C(=O)N[C@@H](CC(=O)O)C(=O)COc1c(F)c(F)cc(F)c1F next?
*A* rule not met

*Q* Can you handle CC(C)[C@H](NC(=O)C(=O)Nc1ccc(F)cc1)C(=O)N[C@@H](CC(=O)O)C(=O)COc1c(F)c(F)cc(F)c1F next?
*A* rule not met

*Q* Can you handle CC(C)[C@H](NC(=O)C(=O)Nc1ccccc1I)C(=O)N[C@@H](CC(=O)O)C(=O)COc1c(F)c(F)cc(F)c1F next?
*A* rule not met

*Q* Can you handle CC(C)[C@H](NC(=O)C(=O)NC12CC3CC(CC(C3)C1)C2)C(=O)N[C@@H](CC(=O)O)C(=O)COc1c(F)c(F)cc(F)c1F next?
*A* rule not met

*Q* Can you handle CC(C)[C@H](NC(=O)C(=O)Nc1cc(C(C)(C)C)ccc1C(C)(C)C)C(=O)N[C@@H](CC(=O)O)C(=O)COc1c(F)c(F)cc(F)c1F next?
*A* rule not met
